Collected koff values appear next to each entry.
- STUDY TARGET: T1, recombinant human CSF-1R (form not stated) (human, UniProt P07333 20-512, limits assumed)
- T1 construct: for the ELISA no species is stated; also called recombinant CSF-1R; recombinant CSF-1R protein
- T1 sequence (P07333 20-512 limits assumed): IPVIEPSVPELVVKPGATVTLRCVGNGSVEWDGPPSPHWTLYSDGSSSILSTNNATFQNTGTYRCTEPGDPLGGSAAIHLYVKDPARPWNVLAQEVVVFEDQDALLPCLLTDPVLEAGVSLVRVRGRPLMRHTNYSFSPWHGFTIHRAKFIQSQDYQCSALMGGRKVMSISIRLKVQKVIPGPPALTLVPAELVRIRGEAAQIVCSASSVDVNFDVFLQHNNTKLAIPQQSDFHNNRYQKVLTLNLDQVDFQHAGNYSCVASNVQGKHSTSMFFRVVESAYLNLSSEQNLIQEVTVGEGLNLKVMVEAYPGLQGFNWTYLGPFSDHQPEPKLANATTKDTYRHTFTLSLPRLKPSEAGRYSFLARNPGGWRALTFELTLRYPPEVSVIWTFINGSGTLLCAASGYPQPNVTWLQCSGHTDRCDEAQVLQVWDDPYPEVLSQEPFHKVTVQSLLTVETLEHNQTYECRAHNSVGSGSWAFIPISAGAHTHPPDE
- TEST PROTOCOL: BIAcore, experiment 1 of 3
- Procedure: The assay format was capture of the anti-CSF-1R antibodies by immobilised anti-human IgG,F(ab′)₂, then a titration of hCSF-1R/Fc over the captured surface. BIA (Biomolecular Interaction Analysis) was performed using a BIAcore 3000 (GE Healthcare Bio-Sciences AB). All experiments were performed at 25° C. […]
Reply numerically in s⁻¹, unit not repeated.

Solved cases below.
BINDER	koff [s⁻¹]
chimeric antibody 969 (rat variable regions, human gamma-4 heavy chain constant region and human kappa chain constant region) (antibody, human IgG4, V domains shown, Alexa-488 label in the cell-based affinity assay; not carried by the letters., Full-length human IgG4 (S241P)/kappa chimeric; also called Ab969) VH: QVTLKESGPGILQPSQTLSLTCTFSGFSLTTYGMGVGWIRQPSGKGLEWLANIWWDDDKYYNPSLKNRLTISKDTSNNQAFLKLTNVHTSDSATYYCARIGPIKYPTAPYRYFDFWGPGTMVTVSS VL: DIQMTQSPASLSASLGETVSIECLASEDIYDNLAWYQKKPGKSPHLLIYYASSLQDGVPSRFSGSGSGTQYSLKINSLESEDAATYFCLQDSEYPWTFGGGTKLELKR	1.03e-05
969gH1gL1 (antibody, human IgG4 S228P, kappa, name in Kabat numbering, V domains shown, Humanised IgG4 (S241P)/kappa; positions are Kabat; also called Ab969.g1) VH: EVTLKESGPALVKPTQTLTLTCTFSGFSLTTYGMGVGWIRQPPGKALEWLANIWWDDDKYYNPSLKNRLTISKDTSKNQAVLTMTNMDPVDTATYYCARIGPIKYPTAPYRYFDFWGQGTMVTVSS VL: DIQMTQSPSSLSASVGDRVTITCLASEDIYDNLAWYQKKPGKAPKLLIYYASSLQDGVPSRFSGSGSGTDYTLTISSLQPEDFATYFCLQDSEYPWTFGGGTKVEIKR	8.47e-06
969gH2gL4 (antibody, human IgG4 S228P, kappa, name in Kabat numbering, V domains shown, Humanised IgG4 (S241P)/kappa; positions are Kabat; also called Ab969.g7) VH: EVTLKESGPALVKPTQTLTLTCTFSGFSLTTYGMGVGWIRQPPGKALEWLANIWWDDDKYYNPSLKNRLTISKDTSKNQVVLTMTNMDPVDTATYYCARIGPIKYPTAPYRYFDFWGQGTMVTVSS VL: DIQMTQSPSSLSASVGDRVTITCLASEDIYDNLAWYQKKPGKAPKLLIYYASSLQDGVPSRFSGSGSGTDYTLTISSLQPEDFATYYCLQDSEYPWTFGGGTKVEIKR	7.73e-06
969gH2gL1 (antibody, human IgG4 S228P, kappa, name in Kabat numbering, V domains shown, Humanised IgG4 (S241P)/kappa; positions are Kabat; also called Ab969.g6) VH: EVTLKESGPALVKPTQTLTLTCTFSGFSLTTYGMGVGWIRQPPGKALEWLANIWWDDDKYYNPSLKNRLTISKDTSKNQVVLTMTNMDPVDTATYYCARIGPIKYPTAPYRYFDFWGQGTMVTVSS VL: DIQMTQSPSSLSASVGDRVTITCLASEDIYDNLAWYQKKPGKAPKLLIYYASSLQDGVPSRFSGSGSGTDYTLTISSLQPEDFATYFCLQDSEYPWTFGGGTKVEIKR	8.84e-06

Next binder, koff to be filled in.
input: Given the binder 969gH2gL8 (antibody, human IgG4 S228P, kappa, name in Kabat numbering, V domains shown, Humanised IgG4 (S241P)/kappa, no donor residues; position is Kabat; also called Ab969.g4) VH: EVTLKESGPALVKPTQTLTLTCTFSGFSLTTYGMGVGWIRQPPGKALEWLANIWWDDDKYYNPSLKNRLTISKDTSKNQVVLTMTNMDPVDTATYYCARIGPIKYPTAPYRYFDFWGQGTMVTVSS VL: DIQMTQSPSSLSASVGDRVTITCLASEDIYDNLAWYQQKPGKAPKLLIYYASSLQDGVPSRFSGSGSGTDFTLTISSLQPEDFATYYCLQDSEYPWTFGGGTKVEIKR , what is its reported koff?
output: 5e-06

The measurements presented in this section are drawn from patent US20180162947A1.
